# System: MS2 coat protein
# test description: apparent KD of MS2 coat protein; higher = weaker reporter binding
# particulars: Eterna round: R107; input ligand: theophylline 2 mM
Reported apparent KD of MS2 coat protein by item:
Value expressed in nM; do not type the unit.

{"columns": ["sequence content", "experimental system", "apparent KD of MS2 coat protein (nM)"],
 "data": [
  ["CACUACAUGAGGAUCACCCAUGUCUUCCGACGAGGACCGGUACGGCCGCCACUCGAACCUCCAACUAAUACCUCAACCGUCUGAU [theeternabot_sameState_MS2_Trp_A_25]", "MS2 coat protein", 101],
  ["GUUGGAUGCUCGGCCGCCACUGAGAGAGUCAUGUGAACAUGAGGAUCACCCAUGUAAUAUAUAUACAGGACCGGGAGUGUUGUAA [4.J]", "MS2 coat protein", 25]
]}

Lookup: Which value of apparent KD of MS2 coat protein has been reported for CAGUCAGUCAGUCAAUGAGUGAGGCAUGAAGGAGCGUGGGAAACCACAGGUAGGUCGCAUGCGGAACAUGAGGAUCACCCAUGUU [SSArg A #4] in the records?
Found: 26.8

Lookup: Request the reported apparent KD of MS2 coat protein associated with AUAUAUACAUGAGGAUCACCCAUGUUAUUUCGAGGACCGGUACGGCCGCCACUCGAUAGAGUAGAAGUAAAUUUUAAUUCAUGUA [JR_SSTryptoA_Sub008]
Found: 16.8
